tested_system: Protein kinase C gamma type (Homo sapiens)
For each of the molecules below, state its IC50.
State just the number; it will be interpreted in nM.

Request: Requested read-out: IC50. Entry: O=C(N[C@H]1C[C@@H](O)C[C@H]1OC(=O)c1cc(O)c(C(=O)c2c(O)cccc2C(=O)O)c(O)c1)c1ccc(O)cc1.O=C(N[C@H]1C[C@H](O)C[C@H]1OC(=O)c1cc(O)c(C(=O)c2c(O)cccc2C(=O)O)c(O)c1)c1ccc(O)cc1 (single isomer, unassigned)
Response: 20

Request: How about O=C(N[C@H]1C[C@H](CO)C[C@H]1OC(=O)c1cc(O)c(C(=O)c2c(O)cccc2C(=O)O)c(O)c1)c1ccc(O)cc1 ?
Response: 5

Request: Next up: O=C(N[C@H]1C[C@@H](CO)C[C@H]1OC(=O)c1cc(O)c(C(=O)c2c(O)cccc2C(=O)O)c(O)c1)c1ccc(O)cc1
Response: 45

Request: Repeat with N[C@@H]1C[C@H](NC(=O)c2ccc(O)cc2)[C@H](OC(=O)c2cc(O)c(C(=O)c3c(O)cccc3C(=O)O)c(O)c2)C1
Response: 5

Data origin: ChEMBL document CHEMBL1151070
